- measurementProtocol: in vitro;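 further: MTT reduction read as absorbance at 595 nm, blank-corrected and expressed as percent growth relative to the time-zero cell reading, triplicate wells per concentration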
- conditionParameters: human
Bridge positions count the residues as written; N and C are the ends. Square brackets hold non-standard residues; d marks the D form. Peptide text beside a SMILES is read from it. 2Nal = N[C@@H](Cc1ccc2ccccc2c1)C(=O)O; Cit = NC(=O)NCCC[C@H](N)C(=O)O
The compounds listed here are annotated with their GI50 at 48 h.
Just the number plus its unit, please.

Some entries whose results are on file:
CSCC[C@@H]1NC(=O)[C@@H]2CCCN2C(=O)[C@H]2CCCN2C(=O)[C@H](CCCCN)NC(=O)[C@H](CCC(N)=O)NC(=O)[C@H](Cc2ccc(O)cc2)NC(=O)[C@@H]2CSSC[C@H](NC(=O)[C@H](CCCNC(N)=O)NC(=O)[C@H](CCCNC(=N)N)NC1=O)C(=O)N[C@@H](CCCNC(=N)N)C(=O)NCC(=O)N1CCC[C@@H]1C(=O)N[C@@H](CCCNC(=N)N)C(=O)N[C@@H](CCCNC(=N)N)C(=O)N[C@@H](Cc1ccc3ccccc3c1)C(=O)N2 [Ex. 91] (cyclo(MR[Cit]CRG[dP]RR[2Nal]CYQK[dP]P); disulfide 4-11); 48 µM
N=C(N)NCCC[C@@H]1NC(=O)[C@@H]2CSSC[C@H](NC(=O)[C@H](Cc3ccc4ccccc4c3)NC(=O)[C@H](CCCNC(=N)N)NC(=O)[C@H](CCCNC(=N)N)NC(=O)[C@H]3CCCN3C(=O)CNC1=O)C(=O)N[C@@H](Cc1ccc(O)cc1)C(=O)N[C@@H](CCC(N)=O)C(=O)N[C@@H](CCCCN)C(=O)N1CCC[C@@H]1C(=O)N1CCC[C@H]1C(=O)N[C@@H](Cc1ccc(O)cc1)C(=O)N[C@@H](CCCNC(=N)N)C(=O)N[C@@H](CCCCN)C(=O)N2 [Ex. 94] (cyclo(YRKCRG[dP]RR[2Nal]CYQK[dP]P); disulfide 4-11); 45 µM
C[C@@H](O)[C@@H]1NC(=O)[C@H](CCCNC(=N)N)NC(=O)[C@H](Cc2ccc(O)cc2)NC(=O)[C@@H]2CCCN2C(=O)[C@H]2CCCN2C(=O)[C@H](CCCCN)NC(=O)[C@H](CCC(N)=O)NC(=O)[C@H](Cc2ccc(O)cc2)NC(=O)[C@@H]2CSSC[C@H](NC1=O)C(=O)N[C@@H](CCCNC(=N)N)C(=O)NCC(=O)N1CCC[C@@H]1C(=O)N[C@@H](CCCNC(=N)N)C(=O)N[C@@H](CCCNC(=N)N)C(=O)N[C@@H](Cc1ccc(O)cc1)C(=O)N2 [Ex. 145] (cyclo(YRTCRG[dP]RRYCYQK[dP]P); disulfide 4-11); 97 µM

Field: next compound
Task: Using the record for N=C(N)NCCC[C@@H]1NC(=O)[C@H](CO)NC(=O)[C@H](CCCNC(N)=O)NC(=O)[C@H](CCCNC(=N)N)NC(=O)[C@H](Cc2ccc(O)cc2)NC(=O)[C@@H]2CCCN2C(=O)[C@H]2CCCN2C(=O)[C@H](CCCCN)NC(=O)[C@H](CCCNC(N)=O)NC(=O)[C@H](Cc2ccc(O)cc2)NC(=O)[C@H](CC(N)=O)NC(=O)[C@H](Cc2c[nH]c3ccccc23)NC(=O)[C@H](CCCNC(=N)N)NC(=O)[C@H](CCCNC(=N)N)NC(=O)[C@H]2CCCN2C(=O)CNC1=O [Ex. 151] (cyclo(YR[Cit]SRG[dP]RRWNY[Cit]K[dP]P)) , state its measured GI50 at 48 h.
Output: 83 µM
